Tested on: SF-295 CNS
method: NCI-60 one-dose screen, 48 h (100 = growth as untreated, 0 = no growth, -100 = all killed)
conditionDescription: 10 µM unless noted
This is part of a sample that, as a whole, favours compounds with a hit. Of some 83,000 tested, about 20% had one in any assay.
Label YES when growth is at or above 80%; anything below gets NO.

Examples from the recorded data:
[[record]]
compound = "CCCCn1cc(C(=O)/C(C#N)=C/c2cc3ccccc3nc2Cl)c2cc(OC)ccc21"
targetofassay = "SF-295 CNS"
qualitativelabel = "YES"

[[record]]
compound = "CN1CCN(C(=O)COc2ccc(/C=C3\\CC4C5CC=C6CC(Cl)CCC6(C)C5CCC4(C)C3=O)cc2)CC1 (configuration not stated)"
targetofassay = "SF-295 CNS"
qualitativelabel = "YES"

[[record]]
compound = "O=C(N/N=C/c1ccc(N(CCCl)CCCl)cc1)c1cc(=O)[nH]c(=O)[nH]1"
targetofassay = "SF-295 CNS"
qualitativelabel = "YES"

[[record]]
compound = "C[C@]12CCc3sc(-c4ccc(Cl)cc4)nc3C1=CC[C@@H]1[C@@H]2CC[C@]2(C)C(=O)CC[C@@H]12"
targetofassay = "SF-295 CNS"
qualitativelabel = "NO"

[[record]]
compound = "Fc1ccc(C2=NN(c3ccccc3)C(c3sc(N(CCCl)CCCl)nc3Cl)C2)cc1 (configuration not stated)"
targetofassay = "SF-295 CNS"
qualitativelabel = "YES"


State whether the measured growth reaches 80%, counting equality as reaching it, for CC1(C)N=C(N)N=C(N)N1c1ccc(OCCCCOc2ccc(S(=O)(=O)F)cc2)c(Cl)c1
NO

State whether the measured growth reaches 80%, counting equality as reaching it, for O=C(c1cccs1)C1NO[N+]([O-])=C1c1cccs1 (configuration not stated)
YES

State whether the measured growth reaches 80%, counting equality as reaching it, for CCC(C)[C@H]1O[C@]2(C=C[C@@H]1C)C[C@@H]1C[C@@H](C/C=C(\C)[C@@H](OC3C[C@H](OC)C(O[C@H]4C[C@H](OC)[C@@H](O)[C@H](C)O4)[C@H](C)O3)[C@@H](C)/C=C/C=C3\CO[C@@H]4[C@H](O)C(C)=C[C@@H](C(=O)O1)[C@]34O)O2 (some centres not stated)
NO

State whether the measured growth reaches 80%, counting equality as reaching it, for ClCCN(CCCl)c1ccc(C=NCCc2c[nH]c3ccccc23)cc1
NO

State whether the measured growth reaches 80%, counting equality as reaching it, for COC(=O)C(=[N+]=[N-])C(=O)OC
YES

State whether the measured growth reaches 80%, counting equality as reaching it, for CC(C)(C)NCC(O)c1ccccc1Cl (configuration not stated)
NO

State whether the measured growth reaches 80%, counting equality as reaching it, for CC(=O)O[C@H]1C[C@H](O[C@H]2[C@@H](O)C[C@H](O[C@H]3[C@@H](O)C[C@H](O[C@H]4CC[C@@]5(C)C(CCC6C5C[C@@H](O)[C@]5(C)[C@@H](C7=CC(=O)OC7)CC[C@]65O)C4)O[C@@H]3C)O[C@@H]2C)O[C@H](C)[C@H]1O[C@@H]1O[C@H](CO)[C@@H](O)[C@H](O)[C@H]1O (some centres not stated)
NO

State whether the measured growth reaches 80%, counting equality as reaching it, for CC(=O)[O][Hg][c]1nc2c(c(=O)n(C)c(=O)n2C)n1C
YES

State whether the measured growth reaches 80%, counting equality as reaching it, for Nc1ccc(N)c2c1Oc1ccccc1O2
YES

State whether the measured growth reaches 80%, counting equality as reaching it, for CC(=O)N1N=C(c2ccccc2)CC1c1sc(N(CCCl)CCCl)nc1Cl (configuration not stated)
YES

State whether the measured growth reaches 80%, counting equality as reaching it, for C#CC1(O)CCC2(C)C(CCC3C4CCC(=O)C4(C)CCC32)C1 (configuration not stated)
YES

State whether the measured growth reaches 80%, counting equality as reaching it, for C=CC(O)CN1CC1CC (configuration not stated)
YES

State whether the measured growth reaches 80%, counting equality as reaching it, for CNC(=O)Oc1cccc(OC)c1
YES

State whether the measured growth reaches 80%, counting equality as reaching it, for CN=C(NN)NN
YES

State whether the measured growth reaches 80%, counting equality as reaching it, for Cc1ccc2oc(=O)c3c(c2c1)OC(N)=C(C#N)C3c1ccco1 (configuration not stated)
YES

State whether the measured growth reaches 80%, counting equality as reaching it, for c1ccc([As]=[As]c2ccccc2)cc1 (configuration not stated)
NO

State whether the measured growth reaches 80%, counting equality as reaching it, for Oc1ccc2c3c1O[C@H]1c4[nH]c5ccccc5c4C[C@@]4(O)C(C2)N(CC2CC2)CC[C@]314
YES

State whether the measured growth reaches 80%, counting equality as reaching it, for O=[N+]([O-])c1cc([N+](=O)[O-])c(Cl)c(Cl)c1Cl
YES

State whether the measured growth reaches 80%, counting equality as reaching it, for O=CC(Br)C(Br)c1ccccc1 (configuration not stated)
YES

State whether the measured growth reaches 80%, counting equality as reaching it, for O=C(CCl)NCNC(=O)CCl
NO

State whether the measured growth reaches 80%, counting equality as reaching it, for ClCCN(CCCl)c1nc(Cl)c(C2CC(c3ccc(Cl)cc3)=NN2c2cc(Cl)cc(Cl)c2)s1 (configuration not stated)
YES

State whether the measured growth reaches 80%, counting equality as reaching it, for O=C(CCCN1CCC2(CC1)C(=O)NCN2c1ccc(F)cc1)c1ccc(F)cc1
YES

State whether the measured growth reaches 80%, counting equality as reaching it, for CCOC(=O)Nc1cc(Cl)c([N+](=O)[O-])c(NC(=O)OCC)n1
YES

State whether the measured growth reaches 80%, counting equality as reaching it, for S=P(NC1CCCCC1)(N1CC1)N1CC1
YES

The origin of these recorded values is PubChem BioAssay (NCI).
